Cited source: patent US11858945B2

IC50 overview
# ASSAYED_TARGET: SARS-CoV-2 3CL-protease (Severe acute respiratory syndrome coronavirus 2 (2019-nCoV) (SARS-CoV-2), UniProt P0DTD1)
# MEASUREMENT_PROTOCOL: SARS-CoV-2 3C-like (3CL) protease fluorescence assay (FRET)
# TEST_CONDITIONS: recombinant SARS-CoV-2 3CL-protease 10 nM, 30 min preincubation at RT, peptide substrate, run in duplicate; IC50 ranges

Worked examples follow.
C#C[C@@H]1C[C@@]2(CN1C(=O)[C@H](CC(C)(C)F)NC(=O)c1cc3cc(F)c(F)c(F)c3[nH]1)C(=O)Nc1ccccc12 [Compound 12]	< 0.1 µM
C#C[C@@H]1C[C@@]2(CN1C(=O)[C@H](CC(C)(C)F)NC(=O)c1cc3cc(F)ccc3o1)C(=O)Nc1ccccc12 [Compound 18]	> 1 µM
C#C[C@@H]1C[C@@]2(CN1C(=O)[C@H](CC(C)(C)F)NC(=O)c1cc3c(Cl)cccc3[nH]1)C(=O)Nc1ccccc12 [Compound 2]	0.1 to 1 µM

Request: Could you share which IC50 value was measured for C#C[C@@H]1C[C@@]2(CN1C(=O)[C@H](CC(C)(C)F)NC(=O)c1cc3cccc(F)c3o1)C(=O)Nc1ccccc12 [Compound 17] ?
Response: > 1 µM

Request: Would you mind doing C#C[C@@H]1C[C@@]2(CN1C(=O)[C@H](CC(C)(C)F)NC(=O)c1c(Cl)cccc1Cl)C(=O)Nc1ccccc12 [Compound 21] as well?
Response: > 1 µM

Request: Would you mind doing C#C[C@@H]1C[C@@]2(CN1C(=O)[C@H](CC(C)(C)F)NC(=O)c1cc3cccc(C#N)c3[nH]1)C(=O)Nc1ccccc12 [Compound 15] as well?
Response: < 0.1 µM
